Tested on: Apomorphin 16 mg/kg
Assay: Antiapomorphine activity (apomorphine 16 mg/kg s.c., hypothermia)
Type: in vivo, Maus
Conditions: Mus musculus, ip, read-out: Erste wirksame Dosis Apomorphin 16 mg/kg, mouse, i.p.; only or lowest value of the cell
Where a name gives a salt, the structure may show the parent alone.
Please go through the items and note down their minimal effective dose.
Give the quantity in mg/kg, number only.

If you can, please state the reported minimal effective dose value of Clc1ccc([C@@H]2CCNC[C@H]2c2ccccc2)cc1Cl [15 (HCl-Salz)] .
1

Endpoint output: minimal effective dose of Oc1ccc([C@@H]2CCNC[C@H]2c2ccccc2)cc1 (racemic) . Value?
0.5

Recorded minimal effective dose for `Clc1ccc([C@@H]2CCNC[C@H]2c2ccccc2)cc1` , please?
0.5

Fill in: minimal effective dose of Clc1ccc(C2CCNCC2c2ccccc2)cc1 (stereo not drawn) [Beispiel 12, cis-4-(4-Chlorphenyl)-3-phenylpiperidin] is ___
2

# query: minimal effective dose of entry Clc1ccc(C2CNCCC2c2ccccc2)cc1 (centres unmarked)
16

Tell me the measured minimal effective dose of Cc1ccc([C@@H]2CCNC[C@H]2c2ccccc2)cc1 (relative stereo) , please.
16

I'd like to know its minimal effective dose. The compound in question is Clc1ccc(C2CNCCC2c2ccccc2)cc1Cl (centres unmarked)
4

Reported minimal effective dose, compound c1ccc([C@@H]2CCNC[C@H]2c2ccccc2)cc1 (relative stereo) [21 (Base), trans-3,4-Diphenylpiperidin] : ____
4
